Origin of the recorded values: PubChem BioAssay (NCI)

method: NCI Yeast Anticancer Drug Screen. Data for the mlh1 rad18 strain (AID 175)
reported.conditions: S. cerevisiae mlh1 rad18 strain growth inhibition; at 5.0 µM (retest, dose inferred, filed as 0.5)
About 79,000 compounds went through this panel and 15% of them were active in at least one assay; those are over-represented in the sample as a whole. Activity calls are given as the source filed them. No stated cut-off is given here; in the data, active means growth inhibition above about 70%; inactive means the rest.
Use one of these outcomes when replying: active, inactive

Input: Which outcome was assigned to CCCCCCOC(=O)NCCOC(=O)Nc1ccccc1 in this test?
Output: inactive

Input: // outcome(item) with item = COC(=O)CCC(NC(=S)N/N=C(\C)c1ccccn1)C(=O)OC (centres undefined)
Output: inactive

Input: Give the logged outcome of this assay for the following molecule: CCCCOCn1c(=O)[nH]c(=O)c2cc(Br)ccc21
Output: inactive

Input: Record request — test call for CC(C)OC(=O)c1ccc(CCc2cc(O)c(Br)cc2O)cc1
Output: inactive

Input: Would you mind telling me which call this test gave CCN(CC)CCNc1ccc2ncn3c4cc(OC)c(OC)c(=O)c4c(O)c1c23 ?
Output: inactive

Input: Assay result, entry O=c1ccc2ccccc2c2ccccc12 — outcome?
Output: inactive

Input: // outcome(item) with item = CCC1(OC(=O)CN2CCN(CCO)CC2)C(=O)OCc2c1cc1n(c2=O)Cc2cc3ccccc3nc2-1 (centres undefined)
Output: inactive

Input: Could you please tell me the result logged for CC1=NOC(=O)/C1=C/c1ccc2c(c1)OCO2 in this assay?
Output: inactive

Input: // return assay outcome for Oc1ccc(SCc2ccc(NCc3ccccc3)cc2)cc1
Output: inactive

Input: Please state the recorded outcome for this molecule: CC1=C(SCc2ccccc2)C(=O)c2ccccc2C1=O
Output: active

Input: Called result for CCCCCCCCCCCC1N=C(N)NC(CCCO)=C1C(=O)OC (centres undefined)
Output: inactive

Input: Recorded test outcome, item C[C](C)(C)[Ge]([O][Ge]([c]1ccccc1)[c]1ccccc1)([O][Ge]([c]1ccccc1)[c]1ccccc1)[C](C)(C)C
Output: inactive

Input: // return assay outcome for CCOC(=O)C(Br)C(Br)c1ccccc1Cl (centres undefined)
Output: inactive

Input: Hey, what did the test say about C=C(C(=C)n1nnc(C(=O)OC)c1C(=O)OC)n1nnc(C(=O)OC)c1C(=O)OC ?
Output: inactive
